- SUBJECT_OF_TEST: reuptake of serotonine (5-HT) in synaptosomes (Rattus norvegicus)
- Construct: in synaptosomes as described in WO 97/16451; from tissue
- Sequence (P31652 whole entry): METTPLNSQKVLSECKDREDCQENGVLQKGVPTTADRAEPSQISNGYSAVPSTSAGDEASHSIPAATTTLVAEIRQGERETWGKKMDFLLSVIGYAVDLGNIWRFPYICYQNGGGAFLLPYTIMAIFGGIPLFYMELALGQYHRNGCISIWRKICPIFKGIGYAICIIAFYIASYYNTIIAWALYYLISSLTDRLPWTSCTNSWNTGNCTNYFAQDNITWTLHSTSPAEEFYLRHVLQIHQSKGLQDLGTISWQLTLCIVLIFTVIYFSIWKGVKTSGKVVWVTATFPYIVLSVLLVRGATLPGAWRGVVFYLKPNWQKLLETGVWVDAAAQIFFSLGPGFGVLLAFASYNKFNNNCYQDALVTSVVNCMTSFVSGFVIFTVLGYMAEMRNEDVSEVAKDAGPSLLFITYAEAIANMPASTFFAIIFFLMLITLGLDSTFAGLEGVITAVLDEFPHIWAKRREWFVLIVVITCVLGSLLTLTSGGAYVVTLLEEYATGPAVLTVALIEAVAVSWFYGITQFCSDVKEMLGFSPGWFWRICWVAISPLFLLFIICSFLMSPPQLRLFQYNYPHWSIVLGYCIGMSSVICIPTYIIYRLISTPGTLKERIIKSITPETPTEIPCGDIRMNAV
- ASSAY_TEXT: Inhibition of serotonine (5-HT) reuptake in synaptosomes
- Format: biochemical
- ASSAY_SETUP: synaptosomes, 3H-5-HT; read-out: 5-HT-uptake IC50
METRIC: IC50 (nM)

| COMPOUND | METRIC | MEASURED_RESULT |
| --- | --- | --- |
| C1=C(c2cc3ccccc3s2)CCC2(C1)CCNCC2 [2nd compound of method A] | IC50 | 20 |
| COc1ccc2cc(C3=CCC4(CCNCC4)CC3)ccc2c1 [4th compound of method A] | IC50 | 16 |
